In this section we review reported t1/2 values for a set of binders.
target: T1, recombinant human LAG3 expressed with a C-terminal myc-myc-hexahistidine tag (human, UniProt P18627 29-450); experiment: SPR, mAb captured, 25 C
T1 construct: also called hLAG3-mmh; hLAG3.mmh
T1 sequence (P18627 other isoform, or with tags, fused parts or gaps limits assumed): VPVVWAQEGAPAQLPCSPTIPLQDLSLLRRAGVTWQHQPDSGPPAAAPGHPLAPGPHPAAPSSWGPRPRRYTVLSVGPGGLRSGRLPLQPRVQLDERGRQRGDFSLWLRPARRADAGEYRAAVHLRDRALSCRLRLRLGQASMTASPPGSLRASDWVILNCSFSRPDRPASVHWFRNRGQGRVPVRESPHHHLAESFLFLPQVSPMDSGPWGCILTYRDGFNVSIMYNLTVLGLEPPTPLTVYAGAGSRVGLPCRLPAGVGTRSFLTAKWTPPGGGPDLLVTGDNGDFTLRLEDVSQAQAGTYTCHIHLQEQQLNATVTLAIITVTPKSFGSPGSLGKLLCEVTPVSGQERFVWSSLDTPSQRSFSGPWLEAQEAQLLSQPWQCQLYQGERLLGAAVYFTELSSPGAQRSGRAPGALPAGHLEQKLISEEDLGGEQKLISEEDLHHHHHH

binder	t1/2, min
H4H17819P (antibody, human IgG4, V domains shown, H4H = human IgG4 Fc with S108P hinge mutation) VH: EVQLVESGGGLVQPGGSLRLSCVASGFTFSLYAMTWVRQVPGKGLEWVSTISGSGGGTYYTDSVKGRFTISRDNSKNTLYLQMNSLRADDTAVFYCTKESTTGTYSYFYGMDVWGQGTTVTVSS VL: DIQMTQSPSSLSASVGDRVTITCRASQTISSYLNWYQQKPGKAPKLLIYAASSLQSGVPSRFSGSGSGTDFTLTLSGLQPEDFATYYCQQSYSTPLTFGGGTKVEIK	26
H4sH14813N (antibody, human IgG4 S228P, kappa, V domains shown, H4sH = modified human IgG4 Fc) VH: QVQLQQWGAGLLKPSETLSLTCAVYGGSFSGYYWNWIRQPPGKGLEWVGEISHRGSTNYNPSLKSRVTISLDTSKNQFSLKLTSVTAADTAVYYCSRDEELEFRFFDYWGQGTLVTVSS VL: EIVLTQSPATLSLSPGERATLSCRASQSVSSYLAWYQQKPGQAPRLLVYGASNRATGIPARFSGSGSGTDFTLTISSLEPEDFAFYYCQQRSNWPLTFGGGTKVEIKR	146
H4H17823P (antibody, human IgG4, V domains shown, H4H = human IgG4 Fc with S108P hinge mutation) VH: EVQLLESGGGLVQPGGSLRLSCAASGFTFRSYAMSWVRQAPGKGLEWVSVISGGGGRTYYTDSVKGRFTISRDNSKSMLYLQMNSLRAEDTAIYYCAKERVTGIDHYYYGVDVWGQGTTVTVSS VL: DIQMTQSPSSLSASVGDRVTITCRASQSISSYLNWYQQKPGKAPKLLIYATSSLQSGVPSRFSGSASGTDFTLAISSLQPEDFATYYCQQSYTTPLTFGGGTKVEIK	25.8
